Source: PubChem BioAssay AID1745844

# Tested on: rodent lifetime carcinogenesis bioassay, tumor incidence TD50
# assayText: carcinogenic potency in animals, long-term in vivo studies, CPDB compilation (AID 1745844)
# experimentalParameters: mouse; strain B6C3F1; males; inhaled; site: liver; lesion: hepatocellular adenoma + hepatocellular carcinoma; dosed 26 weeks; study length 104 weeks
observedProperty: TD50 (mg/kg/day)
Respond numerically; units are mg/kg/day and should not be typed.

Exercise: May I ask what TD50 has been recorded for C=CC=C ?
Key: 23.8

###

# Tested on: rodent lifetime carcinogenesis bioassay, tumor incidence TD50
# assayText: carcinogenic potency in animals, long-term in vivo studies, CPDB compilation (AID 1745844)
# experimentalParameters: rat; strain BR 46; males; i.v.; site: liver; lesion: liver-cell carcinoma; dosed 52 weeks; study length 104 weeks
observedProperty: TD50 (mg/kg/day)
Note: unit mg/kg/day is implicit; provide only the numeric part.

Exercise: I'd like to know its TD50. The molecule in question is O=C1C=C(N2CC2)C(=O)C(N2CC2)=C1N1CC1
Key: 0.0653

###

# System: rodent lifetime carcinogenesis bioassay, tumor incidence TD50
# assayText: carcinogenic potency in animals, long-term in vivo studies, CPDB compilation (AID 1745844)
# experimentalParameters: mouse; strain AP Alderly Park; males; several routes; site: liver; lesion: one or several types; types not named; dosed 78 weeks; study length 78 weeks
Active and inactive are the calls of the source. How the calls were made is not given here.
observedProperty: TD50

Exercise: State the recorded TD50 for this entry: CC(=O)Nc1ccc(OCC(O)CNC(C)C)cc1 (stereo unspecified)
Key: 24300 mg/kg/day (inactive)

###

# System: rodent lifetime carcinogenesis bioassay, tumor incidence TD50
# assayText: carcinogenic potency in animals, long-term in vivo studies, CPDB compilation (AID 1745844)
# experimentalParameters: mouse; strain B6C3F1; males; inhaled; site: all sites; lesion: hemangiosarcoma; dosed 40 weeks; study length 104 weeks
observedProperty: TD50 (mg/kg/day)
Report the value in mg/kg/day with no unit label.

Exercise: Value wanted: TD50 (rodent lifetime carcinogenesis bioassay, tumor incidence TD50) of entry C=CC=C
Key: 20.8

###

# Tested on: rodent lifetime carcinogenesis bioassay, tumor incidence TD50
# assayText: carcinogenic potency in animals, long-term in vivo studies, CPDB compilation (AID 1745844)
# experimentalParameters: mouse; strain ICR/Jcl; females; in feed; site: forestomach; lesion: squamous-cell carcinoma; dosed 62 weeks; study length 62 weeks
observedProperty: TD50

Exercise: Please look up its TD50: NC(=O)C(=Cc1ccc([N+](=O)[O-])o1)c1ccco1
Key: 225 mg/kg/day

###

# Tested on: rodent lifetime carcinogenesis bioassay, tumor incidence TD50
# assayText: carcinogenic potency in animals, long-term in vivo studies, CPDB compilation (AID 1745844)
# experimentalParameters: rat; strain Fischer 344; males; in feed; site: testis; lesion: interstitial-cell adenoma, bilateral + interstitial-cell adenoma; dosed 103 weeks; study length 104 weeks
Let's look at some molecules and their measured TD50.
Report the value in mg/kg/day with no unit label.

- structureSmiles: "Nc1c(Br)cc(Br)c2c1C(=O)c1ccccc1C2=O"
  target: "rodent lifetime carcinogenesis bioassay, tumor incidence TD50"
  TD50 / mg/kg/day: 133

We now examine a further molecule.
Exercise: Which TD50 is reported with rodent lifetime carcinogenesis bioassay, tumor incidence TD50 for this entry: COc1ccccc1[N+](=O)[O-] ?
Key: 21.3
